System: PC-3 prostrate cell adenocarcinoma
Assay: Relative colony forming efficiency (Example 17, Table 13)
Type: cell-based, human
Details: averages of 2-8 determinations
Oligonucleotides are written 5' to 3', each unit as a sugar letter and its base; * is a phosphorothioate linkage, no mark a phosphodiester; rarer units and linkages stand in square brackets, end groups in braces. Plain capitals give the bases only. d = 2'-deoxy (DNA)
Below, each entry is listed with its recorded Reduced relative colony forming efficiency, PC-3 (% inhibition of colony forming ability).
measured.metric: Reduced relative colony forming efficiency, PC-3 (% inhibition of colony forming ability) (%)

[
  {
    "construct.sequence": "ATAAAGTCAAATGGGTTCTC (antisense dA*dT*dA*dA*dA*dG*dT*dC*dA*dA*dA*dT*dG*dG*dG*dT*dT*dC*dT*dC) [AS-II-1224-20]",
    "observed.measurement": 80.66
  },
  {
    "construct.sequence": "ATGGTACTCGATGGGGAAGA (chemistry not given here) [AS-II-439-20]",
    "observed.measurement": 77.66
  },
  {
    "construct.sequence": "ATCGCCGCCGTG (antisense dA*dT*dC*dG*dC*dC*dG*dC*dC*dG*dT*dG) [AS-II-1775-12]",
    "observed.measurement": 78.17
  }
]
